target: monoclonal antibody DD-6; experiment: Competition ELISA with monoclonal antibody DD-6; assay type: binding, Biozzi mice; conditions: competitor vs monoclonal antibody DD-6; plate coated with A-triCDD-RSA
Each entry below carries its recorded I50 (inhibits antibody binding by 50%).
MEASURED PARAMETER: I50 (inhibits antibody binding by 50%)

1) Oc1c(Cl)c(Cl)c(Cl)c(Cl)c1Cl [Pentachlorophenol] ... > 2000 ng
2) Clc1cc(Cl)c2c(c1Cl)Oc1ccccc1O2 [1,2,4-Tri-CDD] ... > 200 ng
3) Oc1ccc(Cl)cc1Cl [2,4-Dichlorophenol] ... > 2000 ng
4) ClC1=C(Cl)C2(Cl)C3C(Cl)C=CC3C1(Cl)C2(Cl)Cl (stereo not drawn) [Heptachlor] ... > 2000 ng
5) O=C(O)COc1cc(Cl)c(Cl)cc1Cl [2,4,5-Trichlorophenoxyacet, 2,4,5-Trichloro-phenoxyacet] ... 2700 ng
6) Oc1cc(Cl)c(Cl)cc1O [4,5-Dichlorocatechol] ... > 2000 ng
7) Clc1ccc(Cl)c(-c2c(Cl)c(Cl)c(Cl)c(Cl)c2Cl)c1Cl [2,2',3,3',4,5,6,6'-Octa-CBP] ... > 200 ng
8) Clc1cc(-c2cc(Cl)c(Cl)c(Cl)c2Cl)c(Cl)c(Cl)c1Cl [2,2',3,3',4,4',5,5'-Octa-CBP] ... > 200 ng
9) Clc1cc(Cl)c(-c2ccccc2Cl)c(Cl)c1 [2,2',4,6-TCBP] ... > 200 ng
